Molecular target: human TRPM8 (Homo sapiens)
Construct: expressed in transfected cells; host or cells: Chinese hamster ovary (CHO) cells, T-REx tetracycline-inducible expression system (Invitrogen); co-transfected with pcDNA3.1 aequorin
Sequence (Q7Z2W7 whole entry): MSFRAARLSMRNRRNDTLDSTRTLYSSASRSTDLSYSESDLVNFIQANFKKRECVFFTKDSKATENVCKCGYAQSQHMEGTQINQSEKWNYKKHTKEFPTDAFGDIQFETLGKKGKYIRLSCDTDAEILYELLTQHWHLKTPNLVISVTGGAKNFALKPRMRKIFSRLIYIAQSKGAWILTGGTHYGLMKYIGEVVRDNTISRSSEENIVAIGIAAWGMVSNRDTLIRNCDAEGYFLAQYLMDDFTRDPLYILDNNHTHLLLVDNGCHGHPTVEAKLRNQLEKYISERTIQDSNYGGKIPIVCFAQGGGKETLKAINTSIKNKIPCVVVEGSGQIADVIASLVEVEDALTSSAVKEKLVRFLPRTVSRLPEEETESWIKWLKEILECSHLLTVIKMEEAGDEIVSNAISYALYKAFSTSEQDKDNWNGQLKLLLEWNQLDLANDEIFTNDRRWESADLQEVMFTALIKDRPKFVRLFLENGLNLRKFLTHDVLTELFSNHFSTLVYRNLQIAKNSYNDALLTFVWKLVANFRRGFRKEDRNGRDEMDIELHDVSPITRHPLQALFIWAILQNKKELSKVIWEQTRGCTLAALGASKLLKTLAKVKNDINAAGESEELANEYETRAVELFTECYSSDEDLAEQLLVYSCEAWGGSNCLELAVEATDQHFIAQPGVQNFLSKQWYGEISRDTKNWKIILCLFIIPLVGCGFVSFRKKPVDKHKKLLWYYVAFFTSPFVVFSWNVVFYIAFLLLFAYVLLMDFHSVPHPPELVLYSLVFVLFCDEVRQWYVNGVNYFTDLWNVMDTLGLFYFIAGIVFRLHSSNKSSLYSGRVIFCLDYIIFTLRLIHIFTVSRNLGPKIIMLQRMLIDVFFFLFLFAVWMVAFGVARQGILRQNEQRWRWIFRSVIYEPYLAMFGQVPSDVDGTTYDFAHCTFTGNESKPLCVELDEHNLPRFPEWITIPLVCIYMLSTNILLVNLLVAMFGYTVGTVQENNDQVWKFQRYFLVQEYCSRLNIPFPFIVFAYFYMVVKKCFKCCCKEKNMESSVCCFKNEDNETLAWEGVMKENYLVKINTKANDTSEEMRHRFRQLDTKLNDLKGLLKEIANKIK
Experiment: Luminescence readout assay for measuring intracellular calcium (aequorin, CHO cells expressing human TRPM8; icilin, L-menthol or cold activation)
Format: cell-based
Conditions: CHO cells expressing human TRPM8, icilin activation (1 μM), aequorin luminescence; read-out: hTRPM8 IC50
Where a name gives a salt, the structure may show the parent alone.
Reported Metric: pIC50
For clarity, pIC50 is expressed as the negative log10 of concentration in mol/L.

| Compound | Test Target | Value Measured |
| --- | --- | --- |
| O=C(N[C@]1(c2ccc(OC(F)(F)F)cc2)CCOc2cccnc21)c1cc2ccccc2o1 [Example 236, formate] | human TRPM8 (Homo sapiens) | 7.18 |
| O=C(NC1(c2ccc(OC(F)(F)F)cc2)CCOc2cccnc21)c1ccc(F)cc1 (stereo not drawn) [Example 8] | human TRPM8 (Homo sapiens) | 7.12 |

Okay, next one:
Entry O=C(N[C@]1(c2ccc(OC(F)(F)F)c(F)c2)CCOc2cccnc21)c1cc(Cl)on1 [Example 200] — recorded pIC50 = 6.79
